For each record, write down the corresponding Maximum Peracetic Acid (PAA) (ppm), C277T/R296P (SEQ ID NO: 476).
# target_or_test_system: C277T/R296P (SEQ ID NO: 476) (Thermotoga maritima, UniProt Q9WXT2, C277T/R296P)
# Construct: made in house; host or cells: E. coli
# Assay type: biochemical
# stated_conditions: 100 mM ester, 60 mM H2O2, 40 ppm enzyme, 95 mM phosphate pH 7.2, 37° C.
Entry rule: numbers only, all in ppm.

Item CC(=O)OCCOC(C)=O [Ethylene glycol diacetate] : provide Maximum Peracetic Acid (PAA) (ppm), C277T/R296P (SEQ ID NO: 476)
1020

Item `CC(=O)OCC(COC(C)=O)OC(C)=O` : provide Maximum Peracetic Acid (PAA) (ppm), C277T/R296P (SEQ ID NO: 476)
2291

Item COCC(C)OC(C)=O (centres unmarked) [Propylene glycol methyl ether acetate] : provide Maximum Peracetic Acid (PAA) (ppm), C277T/R296P (SEQ ID NO: 476)
181

Item `CC(=O)OC[C@H]1OC=C[C@@H](OC(C)=O)[C@@H]1OC(C)=O` : provide Maximum Peracetic Acid (PAA) (ppm), C277T/R296P (SEQ ID NO: 476)
1034

Item CC(=O)OC[C@H]1OC(OC(C)=O)[C@H](OC(C)=O)[C@@H]1OC(C)=O (some centres unmarked) : provide Maximum Peracetic Acid (PAA) (ppm), C277T/R296P (SEQ ID NO: 476)
3270

* * *

# target_or_test_system: Wild Type (SEQ ID NO: 16) (Thermotoga maritima)
# Construct: made in house; host or cells: E. coli
# Sequence (Q9WXT2 1-325): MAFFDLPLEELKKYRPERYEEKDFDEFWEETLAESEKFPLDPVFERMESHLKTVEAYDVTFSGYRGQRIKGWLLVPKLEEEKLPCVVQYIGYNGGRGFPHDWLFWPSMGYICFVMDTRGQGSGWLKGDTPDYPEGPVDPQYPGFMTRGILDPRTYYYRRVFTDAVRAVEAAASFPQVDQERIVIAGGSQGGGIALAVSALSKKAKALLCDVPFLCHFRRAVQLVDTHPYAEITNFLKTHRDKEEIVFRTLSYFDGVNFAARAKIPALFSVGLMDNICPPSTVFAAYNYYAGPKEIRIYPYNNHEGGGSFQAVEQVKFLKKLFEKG
# assay_notes: Maximum peracetic acid from ester substrates with wild type perhydrolase (Example 14)
# Type: biochemical
# stated_conditions: 100 mM ester, 60 mM H2O2, 40 ppm enzyme, 95 mM phosphate pH 7.2, 37° C.
observed_property: Maximum Peracetic Acid (PAA) (ppm), Wild Type (SEQ ID NO: 16)

Item COCC(C)OC(C)=O (stereo not drawn) [Propylene glycol methyl ether acetate] : provide Maximum Peracetic Acid (PAA) (ppm), Wild Type (SEQ ID NO: 16)
177 ppm

Item CC(=O)OC[C@H]1OC=C[C@@H](OC(C)=O)[C@@H]1OC(C)=O [Tri-O-acetyl glucal] : provide Maximum Peracetic Acid (PAA) (ppm), Wild Type (SEQ ID NO: 16)
729 ppm

Item CC(=O)OC[C@H]1O[C@H](OC(C)=O)[C@@H](OC(C)=O)[C@@H](OC(C)=O)[C@@H]1OC(C)=O [α-D-mannopyranose pentaacetate] : provide Maximum Peracetic Acid (PAA) (ppm), Wild Type (SEQ ID NO: 16)
4023 ppm

Item CC(=O)OC[C@H]1O[C@@H](OC(C)=O)[C@H](OC(C)=O)[C@@H](OC(C)=O)[C@@H]1OC(C)=O [β-D-glucose pentaacetate] : provide Maximum Peracetic Acid (PAA) (ppm), Wild Type (SEQ ID NO: 16)
1158 ppm

Item CC(=O)OC[C@H]1OC(OC(C)=O)[C@H](OC(C)=O)[C@@H]1OC(C)=O (stereo partly drawn) [1,2,3,5-tetra-O-acetyl-ribofuranose] : provide Maximum Peracetic Acid (PAA) (ppm), Wild Type (SEQ ID NO: 16)
2828 ppm

Item CC(=O)OCCCCCOC(C)=O [1,5-pentanediol diacetate] : provide Maximum Peracetic Acid (PAA) (ppm), Wild Type (SEQ ID NO: 16)
435 ppm

Item CC(=O)OCCOC(C)=O [Ethylene glycol diacetate] : provide Maximum Peracetic Acid (PAA) (ppm), Wild Type (SEQ ID NO: 16)
794 ppm

Item CC(=O)OC1OC[C@@H](OC(C)=O)[C@@H](OC(C)=O)[C@H]1OC(C)=O (stereo partly drawn) [1,2,3,4-tetra-O-acetyl-ribopyranose] : provide Maximum Peracetic Acid (PAA) (ppm), Wild Type (SEQ ID NO: 16)
2278 ppm

Item `CC(=O)N[C@@H]1[C@@H](OC(C)=O)[C@H](OC(C)=O)[C@@H](COC(C)=O)O[C@@H]1Cl` : provide Maximum Peracetic Acid (PAA) (ppm), Wild Type (SEQ ID NO: 16)
548 ppm

Item CC(=O)OCC(O)COC(C)=O [Diacetin] : provide Maximum Peracetic Acid (PAA) (ppm), Wild Type (SEQ ID NO: 16)
1160 ppm

Item CC(=O)OC[C@H](OC(C)=O)[C@@H](OC(C)=O)[C@H](OC(C)=O)[C@@H](COC(C)=O)OC(C)=O [Sorbitol hexaacetate] : provide Maximum Peracetic Acid (PAA) (ppm), Wild Type (SEQ ID NO: 16)
381 ppm

Item CC(=O)OC[C@H]1O[C@H](OC(C)=O)[C@H](OC(C)=O)[C@@H](OC(C)=O)[C@@H]1OC(C)=O [α-D-glucose pentaacetate] : provide Maximum Peracetic Acid (PAA) (ppm), Wild Type (SEQ ID NO: 16)
1188 ppm

Item CC(=O)OC[C@H]1O[C@@](COC(C)=O)(O[C@H]2O[C@H](COC(C)=O)[C@@H](OC(C)=O)[C@H](OC(C)=O)[C@H]2OC(C)=O)[C@@H](OC(C)=O)[C@@H]1OC(C)=O [Sucrose octaacetate] : provide Maximum Peracetic Acid (PAA) (ppm), Wild Type (SEQ ID NO: 16)
304 ppm

Item CC(=O)OCCOCCOC(C)=O [Diethylene glycol diacetate] : provide Maximum Peracetic Acid (PAA) (ppm), Wild Type (SEQ ID NO: 16)
424 ppm

Item CC(=O)OCC(C)OC(C)=O (stereo not drawn) [Propylene glycol diacetate] : provide Maximum Peracetic Acid (PAA) (ppm), Wild Type (SEQ ID NO: 16)
780 ppm

Item CC(=O)OC[C@H]1OC(OC(C)=O)[C@@H](O)[C@@H](OC(C)=O)[C@@H]1OC(C)=O (stereo partly drawn) [1,3,4,6-tetra-O-acetyl-mannopyranose] : provide Maximum Peracetic Acid (PAA) (ppm), Wild Type (SEQ ID NO: 16)
2361 ppm

Item CC(=O)OCc1ccc(C=O)o1 [5-acetoxymethyl-2-furaldehyde] : provide Maximum Peracetic Acid (PAA) (ppm), Wild Type (SEQ ID NO: 16)
778 ppm

Item CC(=O)OC[C@H]1O[C@@H](OC(C)=O)[C@H](OC(C)=O)[C@@H](OC(C)=O)[C@H]1OC(C)=O [β-D-galactose pentaacetate] : provide Maximum Peracetic Acid (PAA) (ppm), Wild Type (SEQ ID NO: 16)
764 ppm

Item CC(=O)Oc1ccc(C(=O)O)cc1 [4-acetoxybenzoic acid] : provide Maximum Peracetic Acid (PAA) (ppm), Wild Type (SEQ ID NO: 16)
398 ppm

Item CC(=O)OC[C@H]1O[C@@H](S)[C@H](OC(C)=O)[C@@H](OC(C)=O)[C@@H]1OC(C)=O [1-thio-β-D glucose-2,3,4,6-tetraacetate] : provide Maximum Peracetic Acid (PAA) (ppm), Wild Type (SEQ ID NO: 16)
156 ppm

Item CC(=O)OCC(COC(C)=O)OC(C)=O [Triacetin] : provide Maximum Peracetic Acid (PAA) (ppm), Wild Type (SEQ ID NO: 16)
937 ppm

Item CC(=O)O[C@@H]1O[C@H](CO)[C@@H](OC(C)=O)[C@H](OC(C)=O)[C@H]1OC(C)=O [β-D-glucopyranose,1,2,3,4-tetraacetate] : provide Maximum Peracetic Acid (PAA) (ppm), Wild Type (SEQ ID NO: 16)
2129 ppm

Item C=CC(COC(C)=O)OC(C)=O (stereo not drawn) [3,4-diacetoxy-1-butene] : provide Maximum Peracetic Acid (PAA) (ppm), Wild Type (SEQ ID NO: 16)
1692 ppm

Item CC(=O)OC[C@H]1O[C@@H](OC(C)=O)[C@H](OC(C)=O)[C@H]1OC(C)=O [β-D-xylofuranose tetraacetate] : provide Maximum Peracetic Acid (PAA) (ppm), Wild Type (SEQ ID NO: 16)
2384 ppm
